assay setup: in methyl acetate, 298.15 K
measured property: solubility (mole fraction)
Number only, no unit.

Recall and state the measured solubility (mole fraction) for O=C(O)c1cccc2ccccc12 . 0.0301

* * *

assay setup: in methanol, 308.15 K
measured property: solubility (mole fraction)
Number only, no unit.

Recall and state the measured solubility (mole fraction) for O=C(O)c1cccc2ccccc12 . 0.0304

* * *

assay setup: in ethyl acetate, 298.15 K
measured property: solubility (mole fraction)

Recall and state the measured solubility (mole fraction) for O=C(O)c1cccc2ccccc12 . 0.0329

* * *

assay setup: in acetic acid, 293.15 K
measured property: solubility (mole fraction)
Number only, no unit.

Recall and state the measured solubility (mole fraction) for O=C(O)c1cccc2ccccc12 . 0.0172

These entries and their values trace back to BigSolDB 2.1.
